Origin of the recorded values: PubChem BioAssay (NCI)

Test system: COLO 205 colon
Assay: NCI tumour cell line growth inhibition, 48 h
experimentalReadout: log10 of TGI (log10 of the value in µM)
Transform log10 | Measure TGI | Unit µM

Please look up its log10 of TGI: Clc1ccc(C(Cc2ccccc2)c2c(Cl)nc(N3CCNCC3)nc2Cl)cc1 (stereo not given)
0.49

Same lookup for `COCCNCc1ccc(-c2cc3nccc(Oc4ccc(NC(=O)C5(C(=O)Nc6ccc(F)cc6)CC5)cc4F)c3s2)nc1` , please.
0.57

Same lookup for `O=C1C=C(NCC(c2ccccc2)c2ccccc2)C(=O)c2ncccc21` , please.
1.39

Same lookup for `CCOC(=O)/C(C#N)=C\Sc1ccccc1` , please.
1.58
